Ref: paper PMC7792996

Biological target: Death-associated protein kinase 1 (DAPK1) (Homo sapiens, UniProt P53355)
Construct: catalytic domain, residues 1–285
Sequence (P53355 1-285): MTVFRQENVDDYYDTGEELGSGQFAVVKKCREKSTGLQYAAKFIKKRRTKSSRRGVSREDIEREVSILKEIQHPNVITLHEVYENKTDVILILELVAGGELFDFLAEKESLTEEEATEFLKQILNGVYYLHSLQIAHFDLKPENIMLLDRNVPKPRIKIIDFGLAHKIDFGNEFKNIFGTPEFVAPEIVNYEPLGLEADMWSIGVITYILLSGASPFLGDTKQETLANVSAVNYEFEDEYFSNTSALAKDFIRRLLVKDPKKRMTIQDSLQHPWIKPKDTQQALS
Assay: fluorescent probe saturation binding (BC50), competed by RSV
OBSERVATION_TYPE: Kd (µM)

| COMPOUND | ASSAYED_TARGET | VALUE_MEASURED |
| --- | --- | --- |
| O=S(=O)(O)c1cccc2cccc(Nc3ccccc3)c12 [ANS, 8-anilinonaphthalene-1-sulfonic acid] | Death-associated protein kinase 1 (DAPK1) (Homo sapiens, UniProt P53355) | 7.3 |
